Sourced from paper PMC12257544

λem by entry:
TEST DETAILS: Photophysical characterization (absorption, emission, QY, lifetime)
Type: physicochemical
CONDITION DETAILS: in ACN
Quick note: give the figure in nm, leave out the unit.

MOLECULE	λem, nm
COc1nn2ccccc2c1-c1ccc2cccnc2c1	450
CCOC(=O)c1c(=O)n(C)n2ccccc12	445
Oc1cc2ccccn2n1 [Compound 1, Pyrazolo[1,5-a]pyridin-2-ol]	405
COc1nn2ccccc2c1NC(C)=O	457
COc1cc2ccccn2n1 [Compound 1a, 2-Methoxypyrazolo[1,5-a]pyridine]	400

// query λem value for entry CCOC(=O)c1c(O)nn2ccccc12
373
